molecular target: Innovin, lyophilized recombinant human tissue factor combined with phospholipids (human, UniProt P13726 33-295, limits assumed); test: cell-based or functional assay; further: test concentration or dose not given here
value kind: T½ Max (seconds), coagulation of human plasma
Please give a number only; it is taken to be in s.

Example entries and their recorded answers appear below.
M1599 (antibody, V domains shown, complete MAb; FR4 is its own entry; also called H130/L3) VH: EVQLVQSGAEVKKPGESLRISCKGSGYTFGPYWIEWVRQMPGKGLEWMGDILPGTGYTLYSPSFQGHVTISADKSISTAYLQWSSLKASDTAMYYCARSGYYGNSGFAYWGQGTLVTVSS VL: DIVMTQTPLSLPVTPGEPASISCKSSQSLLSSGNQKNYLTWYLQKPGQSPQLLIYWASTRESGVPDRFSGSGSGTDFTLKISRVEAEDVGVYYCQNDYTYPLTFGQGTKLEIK; 151
M1584 (antibody, V domains shown, complete MAb; FR4 is its own entry; also called H173/L3) VH: EVQLVQSGAEVKKPGESLRISCKGSGYTFVTYWIEWVRQMPGKGLEWMGDILPGTGYTVYSPSFQGHVTISADKSISTAYLQWSSLKASDTAMYYCARSGYYGNSGFAYWGQGTLVTVSS VL: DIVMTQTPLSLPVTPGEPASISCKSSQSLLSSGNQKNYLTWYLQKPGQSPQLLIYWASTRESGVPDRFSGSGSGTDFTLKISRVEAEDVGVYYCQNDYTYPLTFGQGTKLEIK; 199
M1648 (antibody, V domains shown, complete MAb; FR4 is its own entry; also called H171/L327) VH: EVQLVQSGAEVKKPGESLRISCKGSGYTFAPYWIEWVRQMPGKGLEWMGDILPGTGFTTYSPSFQGHVTISADKSISTAYLQWSSLKASDTAMYYCARSGYYGNSGFAYWGQGTLVTVSS VL: DIVMTQTPLSLPVTPGEPASISCKSSQSLLPSWNQSNYLTWYLQKPGQSPQLLIYWASTRESGVPDRFSGSGSGTDFTLKISRVEAEDVGVYYCQNDFTYPLTFGQGTKLEIK; 161

Input line: Returns the measured T½ Max (seconds), coagulation of human plasma for the input binder. Input: M1583 (antibody, V domains shown, complete MAb; FR4 is its own entry; also called H177/L3) VH: EVQLVQSGAEVKKPGESLRISCKGSGYTFGPYWIEWVRQMPGKGLEWMGDIIPGSGWTNYSPSFQGHVTISADKSISTAYLQWSSLKASDTAMYYCARSGYYGNSGFAYWGQGTLVTVSS VL: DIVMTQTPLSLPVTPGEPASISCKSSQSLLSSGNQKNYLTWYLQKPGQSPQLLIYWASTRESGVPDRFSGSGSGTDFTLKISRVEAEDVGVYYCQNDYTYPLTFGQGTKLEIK
Output line: 189

Input line: Returns the measured T½ Max (seconds), coagulation of human plasma for the input binder. Input: M60 (antibody, V domains shown, complete MAb; FR4 is its own entry; also called H22/L4) VH: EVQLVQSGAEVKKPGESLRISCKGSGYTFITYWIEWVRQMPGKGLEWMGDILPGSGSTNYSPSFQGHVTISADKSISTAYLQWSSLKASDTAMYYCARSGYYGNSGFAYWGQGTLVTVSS VL: DIVMTQSPLSLPVTPGEPASISCKSSQSLLSSGNQKNYLTWYLQKPGQSPQLLIYWASTRESGVPDRFSGSGSGTDFTLKISRVEAEDVGVYYCQNDYTYPLTFGQGTKLEIK
Output line: 180
